target: Lp-PLA2 (Homo sapiens, UniProt Q13093); test: Inhibitory activity against Lp-PLA2 in human plasma (Thio-PAF assay); details: 2-thio-PAF substrate, 30 min pre-incubation
Sequence (Q13093 22-441): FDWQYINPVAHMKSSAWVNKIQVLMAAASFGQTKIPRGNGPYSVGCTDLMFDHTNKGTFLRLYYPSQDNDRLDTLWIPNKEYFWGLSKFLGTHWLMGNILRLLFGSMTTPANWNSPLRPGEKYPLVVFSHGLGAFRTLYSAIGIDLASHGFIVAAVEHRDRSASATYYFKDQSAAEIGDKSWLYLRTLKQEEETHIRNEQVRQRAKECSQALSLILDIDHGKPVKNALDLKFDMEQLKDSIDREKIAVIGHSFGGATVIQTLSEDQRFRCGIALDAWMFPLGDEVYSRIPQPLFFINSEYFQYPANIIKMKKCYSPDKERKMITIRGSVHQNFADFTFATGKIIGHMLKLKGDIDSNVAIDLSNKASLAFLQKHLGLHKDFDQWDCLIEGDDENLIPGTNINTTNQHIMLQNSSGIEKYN
pIC50: −log10 of the molar value.
// label = MET if pIC50 is not less than 7, otherwise NOT MET

1. O=c1nc(OCc2ccc(Oc3ccccc3)cc2)cc2n1CC1CCN21 (centres unmarked): NOT MET
2. N#Cc1cc(COc2cc3n(c(=O)n2)CC2CCN32)ccc1Oc1ccc(C(F)(F)F)cn1 (centres unmarked): NOT MET
3. Cc1ccc(Oc2c(F)cc(COc3cc4n(c(=O)n3)C[C@H]3CCN43)cc2F)cn1: MET
4. O=c1nc(OCc2ccc(Oc3ccccc3)nc2)cc2n1CC1CCN21 (centres unmarked): NOT MET
